- protocol.text: Pharmacokinetics of BHBM
- Assay type: in vivo, mice
- setup.conditions: C3H/HeN, mouse, plasma, intraperitoneal, 1.6 mg/kg
measurement.label: half-life

Enquiry: GET /values?readout=half-life&item= Cc1ccccc1C(=O)NN=Cc1ccc(O)c(Br)c1 [BHBM]
Return: ~1.4 h

* * *

- protocol.text: In vitro toxicity, MTT assay
- setup.conditions: mouse, J774.16 macrophage cells
measurement.label: EC50 at 48 h (µg/mL)
# unit: µg/mL | format: bare number

Cc1ccccc1C(=O)NN=Cc1ccc(O)c(Br)c1    50

Switching to the query record.
Enquiry: Give the measured EC50 at 48 h of O=C(NN=Cc1ccc(O)c(Br)c1)c1cccc(Br)c1 .
Return: 50

* * *

- protocol.text: Pharmacokinetics of BHBM
- Format: in vivo, mice
- setup.conditions: C3H/HeN, mouse, in vivo, iv, 1.6 mg/kg
measurement.label: half-life (h)
Numbers only here, please. The scale is h.

Enquiry: May I ask what half-life has been recorded for Cc1ccccc1C(=O)NN=Cc1ccc(O)c(Br)c1 ?
Return: 1.24

* * *

- protocol.text: Pharmacokinetics of BHBM
- Assay type: in vivo, mice
- setup.conditions: C3H/HeN, mouse, in vivo, ip, 0.8 mg/kg
measurement.label: bioavailability (%)
Answer format: numeric, % implied, no suffix.

Enquiry: # bioavailability lookup, item Cc1ccccc1C(=O)NN=Cc1ccc(O)c(Br)c1 [BHBM]
Return: 93.6
